Values from the nanobody polyreactivity screen of Harvey et al. (2022)

Experiment: yeast display, Sf9 membrane polyspecificity reagent, FACS + sequencing; frameworks hold sequencing errors

sequence code: QVQLVESGGGLVQAGGSLRLSCAASGSIFSTYAMGWYRQAPGKERELVAAISVSGSSTYYADSVKGRFTISRDNAKNTVYLQMNSLKPEDTAVYYCNKAFRSVRPRRRYDYWGQGTQVTVSS
polyreactivity (PSR sort gate): low polyreactivity
--
sequence code: QVQLVESGGGLVQAGGSLRLSCAASGFTLSYNVMGWYRQAPGKERELVAAISDSGGSTYYADSVKGRFTISRDNAKNTVYLQMNSLKPEDTAVYYCAAYYPTRYQYGTIWVAYNYWGQGTQVTVSS
polyreactivity (PSR sort gate): low polyreactivity
--
sequence code: QVHLVESGGGLVQAGGSLRLSCAASGSIFPRNAMGWYRQAPGKERELVAAISSGGGRTYYADSVKGRFTISRDNAKNTVYLQMNSLKPVDTAVYYCAREVWGYRWLYPVYILDYWGQGTQVTVSS
polyreactivity (PSR sort gate): high polyreactivity
--
sequence code: QVQLVESGGGLVQAGGSLRLSCAASGFTFNYYAMGWYRQAPGKERELVAAISRSGGNTYYADSVKGRFTISRDNAKNTVYLQMNSLKPEDTAVYYCAAYLRSYVRYYYWGQGTQVTVSS
polyreactivity (PSR sort gate): high polyreactivity
